- Tested on: 786-0 renal
- PROTOCOL_SUMMARY: NCI-60 one-dose screen, 48 h
- TEST_CONTEXT: 10 µM unless noted
About 83,000 compounds went through this panel and 20% of them were active in at least one assay; those are over-represented in the sample as a whole. Calls of active or inactive are those of the source. How the source made its calls: active means growth percent below 10; inactive means the rest.
Outcome field: choose from Yes = active, No = inactive

Examples from the recorded data:
MOLECULE	ASSIGNED_CATEGORY
N/C(=N\C(N)=N\c1nc2ccccc2s1)c1ccc2ccccc2c1	No
COc1ccccc1-n1cc(C#N)c(N)c1C(=O)c1ccc(Br)cc1	No
Oc1[nH]c2ccccc2c1Nn1c(N=N/C=c2/ccc3c(c2)C=NN=3)n[nH]c1=S	No

Please share the test call associated with Nc1nc(N)c2c(n1)NC(c1ccc(C(F)(F)F)cc1)CC(c1ccc(Nc3nc(NCCO)nc(N4CCOCC4)n3)cc1)=N2 (stereo not given) .
No

What classification did "CCCCCc1ccc(S(=O)(=O)Nc2cc(-c3csc(NC(=O)CN4CCN(C)CC4)n3)ccc2N2CCN(C)CC2)cc1" end up with in this test?
Yes

----------
- System: CAKI-1 renal
- PROTOCOL_SUMMARY: NCI-60 one-dose screen, 48 h (100 = growth as untreated, 0 = no growth, -100 = all killed)
- TEST_CONTEXT: 10 µM unless noted
Compounds without any hit were thinned out: in the full panel of roughly 83,000, 20% have a hit.
Note to self: class = bucket of growth, per LOW = under 70%, MID = from 70% up to 90%, HIGH = 90% and over

Solved entries:
COMPOUND	TARGET	ASSIGNED_CATEGORY
Cc1noc(C)c1CSc1nc2ccccc2n1-c1ccccc1	CAKI-1 renal	LOW
Cc1ccc(-c2cc3nc(C(Cl)Cl)nc(C)n3n2)cc1	CAKI-1 renal	HIGH
C=C(C=O)[C@@H]1CC[C@]2(CO)CC[C@]3(C)[C@H](CC[C@@H]4[C@@]5(C)CCCNC(C)(C)[C@@H]5CC[C@]43C)[C@@H]12	CAKI-1 renal	LOW

Sort into band: CCNC(=O)N1CCc2cc(OC)c(OCCc3ccc(OC)cc3)cc2C1c1ccc(Cl)cc1C (centres undefined)
LOW

Categorize the following entry: "COc1ccc([C@H]2c3[nH]c4ccccc4c3C[C@H]3C(=O)N(C4CCN(Cc5c(Cl)cccc5Cl)CC4)CC(=O)N23)c(OC)c1"
MID

Any idea which band "CCCCCc1ccc(S(=O)(=O)Nc2cccc(-c3csc(NC(=O)CN4CCN(C)CC4)n3)c2)cc1" is in?
MID

Looking at "O=C1/C(=C/C=C/c2ccco2)SC(=S)N1C1CCCCC1" , which class would you pick?
HIGH

# bin label for "COc1ccccc1NCc1cccn1Cc1ccc(F)cc1"
HIGH

For this compound, which bin applies? Cc1cc(C(NC(=O)CCCCCNc2cccc3c2C(=O)N(C2CCC(=O)NC2=O)C3=O)c2ccc3c(c2)OC(F)(F)O3)c(O)c2ncccc12 (centres undefined)
LOW

Determine which band this compound sits in: "O=C(Nc1ccc(F)c(F)c1)c1cc(-c2ccc(F)cc2F)ccc1O"
LOW

Which bin should I file "C=C=COc1cccc(/C(N)=N/C(N)=N/c2nc3ccccc3s2)c1" under?
LOW

Bin? "Nc1cc(F)ccc1NC(=O)c1ccc(NC(=O)C/C=C/c2cccnc2)cc1"
LOW

These measurements were taken from PubChem BioAssay (NCI).
